molecular target: AmpC; assay: β-lactamase inhibition assay (nitrocefin); details: nitrocefin substrate; read-out: BLi, IC50 AmpC
measure: IC50

Consider the following items and state reported IC50 for each.
1. CC(C)(C)CCOc1c(-c2ccc(F)c(F)c2)oc2cc(OCC(=O)O)cc(O)c2c1=O
2. O=C(O)CC(Oc1cc(O)c2c(=O)c(OCCC3CCCCC3)c(-c3ccc(F)c(F)c3)oc2c1)C(=O)O (centres unmarked)
3. CC(C)(C)CCOc1c(-c2ccc(F)c(F)c2)oc2cc(OCC(=O)N3CCCCC3)cc(O)c2c1=O
4. O=C(O)COc1cc(O)c2c(=O)c(OCCC3CCCCC3)c(-c3ccc(F)c(F)c3)oc2c1
5. CC(C)(C)CCOc1c(-c2ccc(F)c(F)c2)oc2cc(O)cc(O)c2c1=O
6. CN1CCN(CCOc2cc(O)c3c(=O)c(OCCC(C)(C)C)c(-c4ccc(F)c(F)c4)oc3c2)CC1

["> 50 µM", "> 50 µM", "> 50 µM", "> 50 µM", "18.9 µM", "> 50 µM"]

Give IC50 for each listed item.
1. CC(C)(C)CCOc1c(-c2ccc(F)c(F)c2)oc2cc(OCC(=O)N[C@@H](CCCCN)C(=O)O)cc(O)c2c1=O.Cl
2. O=c1c(OCCC2CCCCC2)c(-c2ccc(F)c(F)c2)oc2cc(O)cc(O)c12

1. > 50 µM
2. 15.3 µM

* * *

tested on: PA-027, blaIMP; assay: MIC / checkerboard with ATM; assay type: cell-based, P. aeruginosa; design: key: S: susceptible; I: intermediate; R: resistant; settings: PA-027; Table S2
measure: Susceptibility category

Examples with answers:
{"columns": ["compound", "value"],
 "data": [
  ["NCC[C@H](O)C(=O)N[C@@H]1C[C@H](N)[C@@H](O[C@H]2O[C@H](CN)[C@@H](O)[C@H](O)[C@H]2O)[C@H](O)[C@H]1O[C@H]1O[C@H](CO)[C@@H](O)[C@H](N)[C@H]1O [AMK, amikacin, reference compound]", "R"],
  ["C[C@@H](O)[C@H]1C(=O)N2C(C(=O)O)=C(SCCN=CN)C[C@H]12 [IPM, imipenem, reference compound]", "R"],
  ["C[C@@H](O)[C@H]1C(=O)N2C(C(=O)O)=C(S[C@@H]3CN[C@H](C(=O)N(C)C)C3)[C@H](C)[C@H]12 [MEM, meropenem, reference compound]", "R"],
  ["C[C@H]1[C@H](NC(=O)/C(=N\\OC(C)(C)C(=O)O)c2csc(N)n2)C(=O)N1S(=O)(=O)O", "R"],
  ["CNC(C)C1CCC(N)C(OC2C(N)CC(N)C(OC3OCC(C)(O)C(NC)C3O)C2O)O1 (stereo not shown) [GEN, gentamicin, reference compound]", "R"],
  ["CC(C)(O/N=C(\\C(=O)N[C@@H]1C(=O)N2C(C(=O)[O-])=C(C[n+]3ccccc3)CS[C@H]12)c1csc(N)n1)C(=O)O [CAZ, ceftazidime, reference compound]", "R"]
]}

Turning to the following compound.
Which value of Susceptibility category has been reported for CO/N=C(\C(=O)N[C@@H]1C(=O)N2C(C(=O)[O-])=C(C[N+]3(C)CCCC3)CS[C@H]12)c1csc(N)n1 [FEP, cefepime, reference compound] in the records? R

* * *

Provide the reported pIC50 of each item.
Biological target: OXA-48 (Klebsiella pneumoniae, UniProt Q6XEC0)
Construct: OXA-48 (residues 23–265)
Sequence (Q6XEC0 23-265 limits assumed): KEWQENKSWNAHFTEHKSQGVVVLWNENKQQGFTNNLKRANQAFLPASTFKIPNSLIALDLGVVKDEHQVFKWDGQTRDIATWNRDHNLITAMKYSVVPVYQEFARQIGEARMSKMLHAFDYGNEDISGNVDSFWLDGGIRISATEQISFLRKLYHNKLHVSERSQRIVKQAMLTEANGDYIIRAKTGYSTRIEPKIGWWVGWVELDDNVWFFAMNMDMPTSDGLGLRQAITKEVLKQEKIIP
Experiment: β-lactamase inhibition assay (nitrocefin)
Conditions: nitrocefin substrate; read-out: BLi, IC50 OXA-48
Protocol: Recombinant AmpC, OXA-48 (residues 23–265) and VIM-2 (residues 27–266) were prepared from Escherichia coli based on previously established protocols. […] Enzymatic hydrolysis of the substrate was then monitored by a Cytation 5 imaging multimode reader (BioTek Instruments Inc., Winooski, VT, USA) at 486 nm and 300 nm for nitrocefin and imipenem, respectively, for 15 min. The rates of hydrolysis in the presence of the inhibitors were determined when the reaction rate plateaued. […]
pIC50: −log10 of the molar value.

// worked examples, pIC50 included
{"columns": ["compound", "pIC50"],
 "data": [
  ["C[N+](C)(CCNC(=O)COc1cc(O)c2c(=O)c(OCCC3CCCCC3)c(-c3ccc(F)c(F)c3)oc2c1)CC(=O)[O-]", "< 4.00"],
  ["O=C(O)COc1cc(O)c2c(=O)c(OCCC3CCCC3)c(-c3ccc(F)c(F)c3)oc2c1", "< 4.00"],
  ["CN1CCN(CCOc2cc(O)c3c(=O)c(OCCC(C)(C)C)c(-c4ccc(F)c(F)c4)oc3c2)CC1", "< 4.00"]
]}

I need pIC50 for every entry listed below, if you could help.
1. CC(C)(C)CCOc1c(-c2ccc(F)c(F)c2)oc2cc(OCC(=O)N[C@@H](CCCCN)C(=O)O)cc(O)c2c1=O.Cl
2. O=C(O)CC(Oc1cc(O)c2c(=O)c(OCCC3CCCCC3)c(-c3ccc(F)c(F)c3)oc2c1)C(=O)O (centres unmarked)

< 4.00
< 4.00

For each listed entry, give its pIC50.
1. CN1CCCC1CCOc1cc(O)c2c(=O)c(OCCC(C)(C)C)c(-c3ccc(F)c(F)c3)oc2c1 (centres unmarked)
2. CN1CCN(CCOc2cc(O)c3c(=O)c(OCCC4CCCC4)c(-c4ccc(F)c(F)c4)oc3c2)CC1
3. CC(C)(C)CCOc1c(-c2ccc(F)c(F)c2)oc2cc(OCC(=O)N3CCCCC3)cc(O)c2c1=O
4. CC(C)(C)CCOc1c(-c2ccc(F)c(F)c2)oc2cc(OCC(=O)O)cc(O)c2c1=O
5. CC(C)(C)CCOc1c(-c2ccc(F)c(F)c2)oc2cc(OCC(=O)Nc3ccccc3)cc(O)c2c1=O

["< 4.00", "< 4.00", "< 4.30", "< 4.00", 5.19]

What value of measured pIC50 is listed for O=C(O)COc1cc(O)c2c(=O)c(OCCC3CCCCC3)c(-c3ccc(F)c(F)c3)oc2c1 ? < 4.00

* * *

Assay: In vivo pharmacokinetic study
Design: species or system Sprague–Dawley (SD) rats
Conditions: male, Sprague-Dawley, serum; rat; Intravenous (5 mg/kg); read-out: Cmax
Procedure: After administration of compound 5 (5 mg/kg intravenously and 10 mg/kg orally) to specific pathogen-free (SPF) male Sprague–Dawley (SD) rats (Medicilon Colony: 999M-017), samples of serum were taken at eight different time points (0.083, 0.25, 0.5, 1, 2, 4, 8, and 24 h). […] A standard set of parameters were calculated using non-compartmental analysis modules in FDA certified pharmacokinetic program Phoenix WinNonlin 7.0 (Pharsight, Mountain View, CA, USA).
measure: Cmax (ng/mL)
Answers are plain numbers, in ng/mL.

Which value of Cmax has been reported for CC(C)(C)CCOc1c(-c2ccc(F)c(F)c2)oc2cc(OCC(=O)O)cc(O)c2c1=O in the records? 7510

* * *

assay: In vivo pharmacokinetic study; design: species or system Sprague–Dawley (SD) rats; details: male, Sprague-Dawley, serum; rat; Intravenous (5 mg/kg); read-out: Cl (systemic clearance)
measure: clearance (mL/min/kg)
Give bare numbers, in mL/min/kg.

Returns the measured clearance for the input compound. Input: CC(C)(C)CCOc1c(-c2ccc(F)c(F)c2)oc2cc(OCC(=O)O)cc(O)c2c1=O 23.6

* * *

test system: PA-035, blaGES; test: MIC / checkerboard with ATM; type: cell-based, P. aeruginosa; settings: Pseudomonas aeruginosa, PA-035; Table S2; read-out: MIC value
measure: MIC (µg/mL)
Give bare numbers, in µg/mL.

{"columns": ["molecule", "value"],
 "data": [
  ["C[C@H]1[C@H](NC(=O)/C(=N\\OC(C)(C)C(=O)O)c2csc(N)n2)C(=O)N1S(=O)(=O)O [ATM, aztreonam]", 8],
  ["CO/N=C(\\C(=O)N[C@@H]1C(=O)N2C(C(=O)[O-])=C(C[N+]3(C)CCCC3)CS[C@H]12)c1csc(N)n1 [FEP, cefepime, reference compound]", 4],
  ["C[C@@H](O)[C@H]1C(=O)N2C(C(=O)O)=C(S[C@@H]3CN[C@H](C(=O)N(C)C)C3)[C@H](C)[C@H]12 [MEM, meropenem, reference compound]", 16]
]}

Next, consider the following molecule.
Requested read-out MIC, target or system PA-035, blaGES, entry C[C@@H](O)[C@H]1C(=O)N2C(C(=O)O)=C(SCCN=CN)C[C@H]12 [IPM, imipenem, reference compound] 8

* * *

assay: In vivo pharmacokinetic study; parameters: species or system Sprague–Dawley (SD) rats; settings: male, Sprague-Dawley, serum; rat; Intravenous (5 mg/kg)
measure: C0 (ng/mL)
One number for each entry, in ng/mL.

I have this compound here, CC(C)(C)CCOc1c(-c2ccc(F)c(F)c2)oc2cc(OCC(=O)O)cc(O)c2c1=O , and I need its recorded C0. 11100
